Target System: Epidermal growth factor receptor (Homo sapiens)
Sequence (P00533 whole entry): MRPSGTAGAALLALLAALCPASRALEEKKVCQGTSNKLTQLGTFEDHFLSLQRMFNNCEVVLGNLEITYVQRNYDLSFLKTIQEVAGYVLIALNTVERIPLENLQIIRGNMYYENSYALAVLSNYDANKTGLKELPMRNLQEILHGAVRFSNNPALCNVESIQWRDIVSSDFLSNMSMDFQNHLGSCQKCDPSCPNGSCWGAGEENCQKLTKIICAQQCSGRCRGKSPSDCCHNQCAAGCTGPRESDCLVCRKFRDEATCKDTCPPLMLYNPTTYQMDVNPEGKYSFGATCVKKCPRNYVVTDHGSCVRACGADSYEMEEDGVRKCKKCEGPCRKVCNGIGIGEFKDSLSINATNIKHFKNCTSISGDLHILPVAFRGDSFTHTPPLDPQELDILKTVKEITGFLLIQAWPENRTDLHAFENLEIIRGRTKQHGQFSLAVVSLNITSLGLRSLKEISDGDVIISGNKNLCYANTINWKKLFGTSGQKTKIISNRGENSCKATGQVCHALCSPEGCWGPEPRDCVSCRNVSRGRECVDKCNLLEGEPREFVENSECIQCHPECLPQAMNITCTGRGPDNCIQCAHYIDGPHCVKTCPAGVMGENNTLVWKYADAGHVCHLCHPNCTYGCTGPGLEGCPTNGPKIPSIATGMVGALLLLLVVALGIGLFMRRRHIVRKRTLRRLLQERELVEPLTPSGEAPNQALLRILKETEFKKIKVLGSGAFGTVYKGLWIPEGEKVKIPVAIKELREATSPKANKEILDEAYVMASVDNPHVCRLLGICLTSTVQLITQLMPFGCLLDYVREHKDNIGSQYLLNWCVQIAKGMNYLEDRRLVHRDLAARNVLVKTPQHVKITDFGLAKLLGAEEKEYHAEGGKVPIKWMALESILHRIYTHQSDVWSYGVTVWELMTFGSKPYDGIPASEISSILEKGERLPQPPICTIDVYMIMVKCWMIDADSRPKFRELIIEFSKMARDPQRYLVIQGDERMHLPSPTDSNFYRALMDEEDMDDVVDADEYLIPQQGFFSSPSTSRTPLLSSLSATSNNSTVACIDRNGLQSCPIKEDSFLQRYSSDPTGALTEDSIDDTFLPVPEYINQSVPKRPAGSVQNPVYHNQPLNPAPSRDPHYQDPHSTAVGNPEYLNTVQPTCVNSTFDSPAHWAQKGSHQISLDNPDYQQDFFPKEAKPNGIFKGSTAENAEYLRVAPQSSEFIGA
Protocol: Inhibition of human EGFR autophosphorylation expressed in Sf9 cells DELFIA assay
Assay type: cell-based
Readout Label: IC50 (nM)
Give a bare numeral; the unit nM is implied.

Retrieve IC50 measured for Cc1ccc(Br)c2c(C#N)cc(C(=O)C3CC3)n12 and print it.
85

###

Test system: HepG2
Protocol: cells
Stated Conditions: Homo sapiens, HepG2, 48 h
Description: Cytotoxicity against human HepG2 cells after 48 hrs by MTT assay
Exercise: state measured IC50 for each of the molecules provided.
# value in µg/mL; strip the unit string

Give reported IC50 value for Cc1ccn2c(C(=O)C3CC3)cc(C#N)c2c1
21

Quote IC50 reported for N#Cc1cc(C(=O)C2CC2)n2c1ccc1ccccc12 please.
2.1

Find the measured IC50 of N#Cc1cc(C(=O)C2CC2)n2ccc3ccccc3c12 and report it.
4.3

Dear colleague, please send me the reported IC50 for N#Cc1cc(C(=O)C2CC2)n2c1ccc1nccn12 when you can.
15

Tell me measured IC50 for O=C(Nc1ccccc1)c1cc(C(=O)C2CC2)n2ccccc12 please.
0.56

Give me measured IC50, please, for this molecule: COC(=O)c1cc(C(=O)C2CC2)n2ccc(C)cc12
25

// fetch IC50 given entry COC(=O)c1cc(C(=O)C2CC2)n2c(Br)cccc12
2.5

Name the recorded IC50 of the item COC(=O)c1cc(C(=O)C2CC2)n2c(C)ccc(Br)c12 in your answer.
1.1

Determine from records and report IC50 for CCOC(=O)c1c(C(=O)OCC)c2ccccn2c1C(=O)C1CC1
32

Retrieve IC50 measured for Cc1ccc(Br)c2c(C#N)cc(C(=O)C3CC3)n12 and print it.
0.2

Determine from records and report IC50 for N#Cc1cc(C(=O)C2CC2)n2c(Br)cccc12
1.8

// fetch IC50 given entry COC(=O)c1cc(C(=O)C2CC2)n2ccc3ccccc3c12
9.3

Identify IC50 associated with the molecule N#Cc1cc(C(=O)C2CC2)n2ccccc12
0.32

Determine its reported IC50: CCOC(=O)c1c(C(=O)OCC)c2cc(C)ccn2c1C(=O)C1CC1
0.29

Look up IC50 of COC(=O)c1cc(C(=O)C2CC2)n2c1ccc1nccn12 and report it.
25

Supply reported IC50 belonging to this molecule: COC(=O)c1c(C(=O)OC)c2c3ccccc3ccn2c1C(=O)C1CC1
27

Look up and state reported IC50 for COC(=O)c1cc(C(=O)C2CC2)n2ccccc12
6.6

Recall and state the measured IC50 for O=C(c1c2c(c3ccccn13)C(=O)N(c1ccccc1)C2=O)C1CC1 .
0.48

// fetch IC50 given entry COC(=O)c1cc(C(=O)C2CC2)n2c1ccc1ccccc12
4.6
